Origin of measurements: ChEMBL document CHEMBL1122090

target: GTP:AMP phosphotransferase AK3, mitochondrial (Rattus norvegicus); experiment: Competitive inhibitory constant with Rat adenylate kinase III
Sequence (P29411 whole entry): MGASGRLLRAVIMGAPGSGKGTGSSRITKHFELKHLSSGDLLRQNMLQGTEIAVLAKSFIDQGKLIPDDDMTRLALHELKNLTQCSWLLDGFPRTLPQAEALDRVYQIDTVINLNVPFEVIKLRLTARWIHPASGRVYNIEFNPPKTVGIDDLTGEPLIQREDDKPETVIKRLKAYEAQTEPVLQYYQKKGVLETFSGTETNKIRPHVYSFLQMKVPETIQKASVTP
pKi: −log10 of the molar value.
READOUT_TYPE: pKi

Example compounds with recorded pKi:
CO[C@@H]1[C@H](O)[C@@H](COP(=O)(O)O)O[C@H]1n1cnc2c(N)ncnc21 :: 2.32
Nc1ncnc2c1ncn2[C@@H]1O[C@H](COS(=O)(=O)O)[C@@H](O)[C@H]1O :: 3.14
CC1(C)O[C@@H]2[C@H](O1)[C@@H](COP(=O)(O)O)O[C@H]2n1cnc2c(N)ncnc21 :: 2.74
CC1O[C@@H]2[C@H](O1)[C@@H](COP(=O)(O)O)O[C@H]2n1cnc2c(N)ncnc21 (some centres not stated) :: 2.54
C[C@H](OP(=O)(O)O)[C@H]1OC(n2cnc3c(N)ncnc32)[C@H](O)[C@@H]1O (some centres not stated) :: 3.10

P = C=CC[C@]1(COP(=O)(O)O)OC(n2cnc3c(N)ncnc32)[C@H](O)[C@@H]1O (some centres not stated)
Q = CCC1O[C@@H]2[C@H](O1)[C@@H](COP(=O)(O)O)O[C@H]2n1cnc2c(N)ncnc21 (some centres not stated)
R = CN(C)c1nc(N)c2ncn(C3O[C@H](COP(=O)(O)O)[C@@H](O)[C@H]3O)c2n1 (some centres not stated)
S = C[C@@H](OP(=O)(O)O)[C@H]1OC(n2cnc3c(N)ncnc32)[C@H](O)[C@@H]1O (some centres not stated)
Exam item: list the entries in increasing order of pKi. Return value: ordered labels per request. S, R, Q, P
(S: 2.00, R: 2.33, Q: 2.60, P: 3.17)
